In this section, each of the compounds is paired with its reported inhibition at 1 µM.
Test system: IL-12p40 production
Test: In vitro inhibition of IL-12p40 production in human blood (LPS-stimulated whole blood, ELISA)
Assay type: cell-based
Settings: test dose 1 × 10^−6 M, LPS 100 ng/ml, 24 hours, read-out: % inhib. IL-12 (p40)
Output spec: scalar in %, unitless text.

Example results:
Cc1nc(-c2ccc(C(F)(F)F)cc2)sc1-c1ccnc(NCC(=O)O)n1; 56
Cc1nc(-c2ccc(C(F)(F)F)cc2)sc1-c1cc(O)nc(N)n1; 49
Cc1nc(-c2ccc(C(F)(F)F)cc2)sc1-c1nc(N)ncc1F; 92
COc1nccc(-c2sc(-c3ccc(C(F)(F)F)cc3)nc2C)n1; 59
Cc1nc(-c2ccc(C(F)(F)F)cc2)sc1-c1ccnc(C#N)n1; 93

# input Request the reported inhibition at 1 µM associated with "Cc1nc(-c2ccc(C(F)(F)F)cc2)sc1-c1ccnc(N)n1"
# output 57

# input Can you handle "Cc1nc(-c2ccc(C(F)(F)F)cc2)sc1-c1ccnc(NCCCN)n1" next?
# output 93
